tgt: TYK2 (Homo sapiens, UniProt P29597)
Sequence (P29597 whole entry): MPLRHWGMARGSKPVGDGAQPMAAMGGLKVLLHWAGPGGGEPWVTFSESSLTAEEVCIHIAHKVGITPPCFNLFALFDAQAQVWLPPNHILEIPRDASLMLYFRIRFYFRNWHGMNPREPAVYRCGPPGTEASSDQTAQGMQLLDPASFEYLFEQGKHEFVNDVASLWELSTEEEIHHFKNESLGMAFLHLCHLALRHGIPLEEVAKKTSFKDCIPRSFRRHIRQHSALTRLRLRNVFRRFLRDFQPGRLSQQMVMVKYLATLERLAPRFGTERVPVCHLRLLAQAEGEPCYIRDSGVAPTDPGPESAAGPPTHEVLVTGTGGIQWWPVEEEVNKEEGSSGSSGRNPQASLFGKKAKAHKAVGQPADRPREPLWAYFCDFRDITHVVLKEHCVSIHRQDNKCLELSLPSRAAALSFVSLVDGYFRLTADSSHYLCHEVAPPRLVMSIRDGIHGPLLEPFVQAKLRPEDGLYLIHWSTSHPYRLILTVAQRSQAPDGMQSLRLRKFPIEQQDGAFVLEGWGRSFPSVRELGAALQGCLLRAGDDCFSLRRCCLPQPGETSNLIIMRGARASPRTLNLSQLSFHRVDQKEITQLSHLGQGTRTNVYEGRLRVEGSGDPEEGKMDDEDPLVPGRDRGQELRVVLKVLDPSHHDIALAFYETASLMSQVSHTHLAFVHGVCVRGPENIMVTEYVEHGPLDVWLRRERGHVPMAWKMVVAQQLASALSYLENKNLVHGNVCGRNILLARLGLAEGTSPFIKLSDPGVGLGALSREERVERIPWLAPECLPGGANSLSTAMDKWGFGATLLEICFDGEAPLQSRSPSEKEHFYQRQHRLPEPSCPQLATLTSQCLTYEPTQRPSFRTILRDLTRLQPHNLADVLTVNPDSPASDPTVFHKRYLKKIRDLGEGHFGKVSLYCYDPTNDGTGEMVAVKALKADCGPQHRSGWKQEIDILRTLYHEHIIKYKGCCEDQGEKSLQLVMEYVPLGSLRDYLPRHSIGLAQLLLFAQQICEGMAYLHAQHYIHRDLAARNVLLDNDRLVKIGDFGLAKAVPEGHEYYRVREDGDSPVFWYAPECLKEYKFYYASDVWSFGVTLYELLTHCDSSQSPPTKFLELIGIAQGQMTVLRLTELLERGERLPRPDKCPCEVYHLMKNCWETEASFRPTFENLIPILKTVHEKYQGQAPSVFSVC
assay text: TYK2 kinase inhibition (Table A1)
Assay type: biochemical
pIC50: −log10 of the molar value. Counter-ions that a name gives are not always drawn.
readout kind: pIC50

- compound: "O=C(CC1CCN(S(=O)(=O)c2ccccc2C(F)(F)F)CC1)Nc1ccc2cc1CCc1cncc(c1)Nc1ncc(Cl)c(n1)N2 [Example A224, bis(trifluoroacetate)]"
  readout kind: "pIC50"
  recorded result: "< 6.40"
- compound: "Cc1cc(C(=O)N2CCC(CC(=O)Nc3ccc4cc3CCc3cccc(c3)Nc3ncc(F)c(n3)N4)CC2)no1 [Example C52, trifluoroacetate]"
  readout kind: "pIC50"
  recorded result: "< 6.70"
- compound: "O=C(CC1CCN(C(=O)c2ccncc2)CC1)Nc1ccc2cc1CCc1cncc(c1)Nc1ncc(Cl)c(n1)N2 [Example A189, tris(trifluoroacetate)]"
  readout kind: "pIC50"
  recorded result: "< 6.70"

// query Which measured pIC50 value corresponds to Cc1oncc1S(=O)(=O)N1CCC(CC(=O)Nc2ccc3cc2CCc2cncc(c2)Nc2ncc(Cl)c(n2)N3)CC1 [Example A200, bis(trifluoroacetate)] ?
// result < 6.70
